Reference source: patent US11478451B1

What EC50 was measured for each of the following?
# Test system: SUDHL5 cells
# procedure-text: Induction of caspase-3/7 activity (Caspase-Glo 3/7), SUDHL5
# Type: cell-based
# details: EC50, median; SUDHL5, 3 h treatment
# From the text: Induction of Caspase-3/7 Activity Upon Treatment of Cells with Selected Compounds The BH3-domain of MCL-1 sequesters pro-apoptotic proteins, thereby inhibiting apoptosis. In contrast, MCL-1 inhibitors are expected to antagonize this effect leading to an increase in apoptosis, which can be determined by measuring the activity of caspase-3/7. […] For the evaluation of the results, the background measured with “medium-only” was subtracted from all other values.
// note: answer is a bare numeric in µM

Request: Specify reported EC50 for the compound shown: Cc1c2c(nn1C)COCC1CCC1Cn1c(C(=O)O)c(CCCOc3cccc4ccccc34)c3ccc(Cl)c-2c31 (single isomer, unassigned; stereoisomer 1) [Example 63]
Response: 9

Request: Specify reported EC50 for the compound shown: Cc1c2c(nn1C)COCC(F)(F)CCn1c(C(=O)O)c(CCCOc3cccc4ccccc34)c3ccc(Cl)c-2c31 (single isomer, unassigned; enantiomer 1) [Example 56]
Response: 0.13

Request: Specify reported EC50 for the compound shown: CCc1c2c(nn1C)CCCN(CC(F)F)CCn1c(C(=O)O)c(CCCOc3cccc4cc(F)ccc34)c3ccc(Cl)c-2c31 [Example 120]
Response: 10
